Molecular target: recombinant human CD46 antigen (human) (UniProt P15529)
Assay: pH range ELISA (pH 5.5 to 7.4), coated human CD46
Give pH inflection point for every item shown.
Give the value, in units of pH, as a plain number.

Which pH inflection point reading was recorded for the binder BA-133-04-01 (antibody, V domains shown) VH: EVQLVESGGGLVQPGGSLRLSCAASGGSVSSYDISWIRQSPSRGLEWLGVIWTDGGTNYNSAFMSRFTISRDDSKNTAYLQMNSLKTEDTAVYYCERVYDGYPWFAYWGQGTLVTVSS VL: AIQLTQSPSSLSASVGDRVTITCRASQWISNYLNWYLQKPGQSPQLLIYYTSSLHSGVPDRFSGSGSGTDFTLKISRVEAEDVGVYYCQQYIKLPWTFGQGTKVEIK ? 6.61

Which pH inflection point reading was recorded for the binder BA-133-04-02 (antibody, V domains shown) VH: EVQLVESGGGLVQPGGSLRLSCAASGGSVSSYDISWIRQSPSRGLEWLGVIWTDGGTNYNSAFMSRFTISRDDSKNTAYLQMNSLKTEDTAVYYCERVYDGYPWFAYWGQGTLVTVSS VL: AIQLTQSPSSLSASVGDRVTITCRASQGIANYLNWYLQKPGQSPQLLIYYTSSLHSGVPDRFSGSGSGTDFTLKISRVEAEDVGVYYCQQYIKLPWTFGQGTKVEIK ? 6.64

Which pH inflection point reading was recorded for the binder BAP133-2-02-12 (antibody, V domains shown) VH: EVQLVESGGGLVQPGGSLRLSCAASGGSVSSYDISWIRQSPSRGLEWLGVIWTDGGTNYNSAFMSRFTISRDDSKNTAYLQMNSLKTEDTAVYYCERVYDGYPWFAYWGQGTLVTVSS VL: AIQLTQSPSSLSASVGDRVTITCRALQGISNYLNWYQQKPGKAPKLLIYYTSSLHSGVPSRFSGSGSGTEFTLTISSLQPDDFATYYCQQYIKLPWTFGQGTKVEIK ? 6.58

Which pH inflection point reading was recorded for the binder BA-133-04-04 (antibody, V domains shown) VH: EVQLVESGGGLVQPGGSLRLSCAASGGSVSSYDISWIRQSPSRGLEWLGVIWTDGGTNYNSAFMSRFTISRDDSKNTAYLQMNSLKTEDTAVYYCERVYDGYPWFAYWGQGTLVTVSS VL: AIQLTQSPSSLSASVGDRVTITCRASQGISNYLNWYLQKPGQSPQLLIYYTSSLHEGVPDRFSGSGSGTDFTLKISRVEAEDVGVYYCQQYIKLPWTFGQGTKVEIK ? 6.7

Which pH inflection point reading was recorded for the binder BAP133-2-03-03-SL (antibody, V domains shown) VH: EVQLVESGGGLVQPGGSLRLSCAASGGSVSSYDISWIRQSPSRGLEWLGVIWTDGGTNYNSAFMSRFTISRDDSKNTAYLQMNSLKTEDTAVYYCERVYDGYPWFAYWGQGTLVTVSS VL: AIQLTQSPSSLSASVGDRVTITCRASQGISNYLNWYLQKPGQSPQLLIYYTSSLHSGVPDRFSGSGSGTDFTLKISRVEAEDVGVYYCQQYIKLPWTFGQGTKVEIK ? 6.8

Where these numbers come from: patent US20230242662A1
